The values you see were collected from ChEMBL document CHEMBL4387717.

test-description: Half life in pH 6 buffer at 0.05 mg/ml under H2O2-induced oxidative condition over 24 hrs
Assay type: physicochemical
stated-conditions: buffer with H2O2, pH 6
reported-metric: half-life at 0.05 mg/ml (h)
The reply should be a number in h, with the unit left off.

Fill blank: measured half-life at 0.05 mg/ml of the compound `N=C(N)c1ccc(NCc2nc(-c3ccccc3)c[nH]2)cc1OCC(=O)NCC1CC1` is ____.
26.7

Given the compound `N=C(N)c1ccc(NCc2nc(-c3ccccc3)c[nH]2)cc1OCc1cccnc1` , what is its reported half-life at 0.05 mg/ml?
27.8

----------
tgt: Prothrombin (Homo sapiens, UniProt P00734)
test-description: Inhibition of recombinant C-terminal 10His-tagged human thrombin (Met1 to Glu622 residues) expressed in mouse NS0 cells using BOC-VPR-AMC as substrate after 40 mins by fluorescence intensity assay
reported-metric: pIC50
Reminder that pIC50 means the negative base-10 logarithm of the concentration expressed in mol/L.

Looking for the measured pIC50 of `N=C(N)c1ccc(NCc2nc(-c3ccccc3)c[nH]2)cc1OCc1cccnc1` , can you help?
4.20

----------
test-description: Solubility of the compound in pH 8 Britton-Robinson buffer at 24 hrs
Assay type: physicochemical
reported-metric: solubility at 24 h (µg/mL)
Give the value in µg/mL but do not write µg/mL after it.

Data request, read-out solubility at 24 h, for `N=C(N)c1ccc(NCc2nc(-c3ccccc3)c[nH]2)cc1OCc1cccnc1`
180

----------
tgt: Kallikrein-8 (Homo sapiens, UniProt O60259)
Sequence (O60259 whole entry): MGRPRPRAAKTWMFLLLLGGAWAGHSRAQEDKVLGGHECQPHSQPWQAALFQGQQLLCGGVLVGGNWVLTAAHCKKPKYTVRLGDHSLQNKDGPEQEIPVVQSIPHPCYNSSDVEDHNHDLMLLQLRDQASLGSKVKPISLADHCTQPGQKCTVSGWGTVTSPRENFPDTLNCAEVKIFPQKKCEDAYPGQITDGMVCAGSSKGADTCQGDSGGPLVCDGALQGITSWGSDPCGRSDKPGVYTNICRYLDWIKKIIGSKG
test-description: Inhibition of recombinant C-terminal 10-His tagged human KLK8 (Gln29 to Gly260 residues) expressed in mouse NS0 cells using BOC-VPR-AMC as substrate after 40 mins by fluorescence intensity assay
reported-metric: IC50 (nM)
Response body: numeric value in nM, unit text excluded.

# input molecule: `N=C(N)c1ccc(NCc2nc(-c3ccccc3)c[nH]2)cc1OCc1cccnc1` ; wanted: its IC50
794

----------
Organism: Homo sapiens
test-description: Selectivity index, ratio of compound effect for inhibition of recombinant bovine enterokinase activated N-terminal His-tagged recombinant human KLK1 (19 to 262 residues) expressed in baculovirus infected Sf9 insect cells to compound effect for inhibition of recombinant 6His-Q-FLAG tagged human KLK5 expressed in baculovirus infected insect Sf9 cells
reported-metric: Selectivity Index
Write no unit; give the number alone.

State the recorded Selectivity Index for this entry: `N=C(N)c1ccc(NCc2nc(-c3ccccc3)c[nH]2)cc1OCC1CC1`
60

Selectivity Index lookup needed for `CCOc1cc(NCc2nc(-c3ccccc3)c[nH]2)ccc1C(=N)N` , thanks.
20

Dear colleague, I am looking for the recorded Selectivity Index of the following compound: `N=C(N)c1ccc(NCc2nc(-c3ccccc3)c[nH]2)cc1OCc1ccccc1`
300

Dear colleague, I am looking for the recorded Selectivity Index of the following compound: `N=C(N)c1ccc(NCc2nc(-c3ccccc3)c[nH]2)cc1OCCC1CC1`
250

----------
tgt: UniProt:Q9Y337
test-description: Inhibition of recombinant 6His-Q-FLAG tagged human KLK5 expressed in baculovirus infected Sf9 insect cells using (Tos-Gly-Pro-Arg)2[R110].2TFA as substrate measured at 30 secs interval for 5 mins by fluorescence intensity assay
stated-conditions: read-out: IC50
pIC50: −log10 of the molar value.
reported-metric: pIC50

Recorded pIC50 for `N=C(N)c1ccc(NCc2nc(-c3ccccc3)c[nH]2)cc1OCc1ccccc1` , please?
> 8.00

----------
test-description: Solubility of the compound in pH 4 Britton-Robinson buffer at 24 hrs
Type: physicochemical
stated-conditions: Britton-Robinson buffer, pH 4
reported-metric: solubility at 24 h (µg/mL)
Respond with the bare value in µg/mL.

Consider the compound shown here: `N=C(N)c1ccc(NCc2nc(-c3ccccc3)c[nH]2)cc1OCc1cccnc1` What is its recorded solubility at 24 h?
1000

----------
test-description: Half life in pH 4 to 8 buffer at 0.05 mg/ml over 24 hrs
Type: physicochemical
reported-metric: half-life at 0.05 mg/ml

Need half-life at 0.05 mg/ml, item `N=C(N)c1ccc(NCc2nc(-c3ccccc3)c[nH]2)cc1OCC(=O)NCC1CC1`
> 41.7 days

Item under review: `N=C(N)c1ccc(NCc2nc(-c3ccccc3)c[nH]2)cc1OCc1cccnc1` . Reported half-life at 0.05 mg/ml?
> 41.7 days

----------
tgt: Kallikrein-1 (Homo sapiens, UniProt P06870)
Sequence (P06870 whole entry, the tested form may be a part): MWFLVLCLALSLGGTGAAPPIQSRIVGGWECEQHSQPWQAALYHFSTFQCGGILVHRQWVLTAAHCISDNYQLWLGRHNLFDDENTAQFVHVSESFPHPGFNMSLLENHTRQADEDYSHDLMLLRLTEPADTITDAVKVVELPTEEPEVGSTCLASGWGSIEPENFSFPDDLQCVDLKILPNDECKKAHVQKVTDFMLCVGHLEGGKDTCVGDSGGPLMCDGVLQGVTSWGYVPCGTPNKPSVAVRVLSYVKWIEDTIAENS
test-description: Inhibition of recombinant bovine enterokinase activated N-terminal His-tagged recombinant human KLK1 (19 to 262 residues) expressed in baculovirus infected Sf9 insect cells using 3',6'-bis(prolylphenylalanylarginylamino)3H-spiro(2-benzofuran-1,9'-xanthen)-3-one;TFA as substrate measured at 30 secs interval for 5 mins by fluorescence intensity assay
reported-metric: pIC50
Please note pIC50 is a logarithmic value: minus log10 of concentration in mol/L. Answer with that number alone.

What measured pIC50 is associated with `Cc1ccc2[nH]c(CNc3ccc(C(=N)N)cc3)nc2c1` on Kallikrein-1 (Homo sapiens, UniProt P06870)?
5.20

Form field: pIC50 recorded for `N=C(N)c1ccc(NCc2nc(-c3ccccc3)c[nH]2)cc1OCc1cccnc1` with Kallikrein-1 (Homo sapiens, UniProt P06870) (enter value)
4.20

Please provide the recorded pIC50 for `N=C(N)c1ccc(NCc2ncc[nH]2)cc1` , tested on Kallikrein-1 (Homo sapiens, UniProt P06870).
4.20

Requested read-out pIC50, target or system Kallikrein-1 (Homo sapiens, UniProt P06870), entry `COc1ccc2[nH]c(CNc3ccc(C(=N)N)cc3)nc2c1`
4.50

# get_value(readout= pIC50, system= Kallikrein-1 (Homo sapiens, UniProt P06870)) for `N=C(N)c1ccc(NCc2nc(-c3ccccc3)c[nH]2)cc1OCc1ncco1`
4.90

Kallikrein-1 (Homo sapiens, UniProt P06870) / pIC50 / `CNC(=O)COc1cc(NCc2nc(-c3ccccc3)c[nH]2)ccc1C(=N)N` : value?
4.50

----------
tgt: Kallikrein-5 (Homo sapiens, UniProt Q9Y337)
Sequence (Q9Y337 whole entry): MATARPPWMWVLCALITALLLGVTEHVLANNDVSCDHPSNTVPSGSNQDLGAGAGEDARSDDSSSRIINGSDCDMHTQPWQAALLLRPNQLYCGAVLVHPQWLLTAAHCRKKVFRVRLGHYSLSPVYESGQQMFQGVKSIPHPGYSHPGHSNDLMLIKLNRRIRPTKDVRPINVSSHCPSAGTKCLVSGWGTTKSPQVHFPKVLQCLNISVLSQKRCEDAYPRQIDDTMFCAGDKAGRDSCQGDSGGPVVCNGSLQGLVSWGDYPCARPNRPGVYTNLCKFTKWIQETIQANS
test-description: Inhibition of recombinant 6His-Q-FLAG tagged human KLK5 expressed in baculovirus infected Sf9 insect cells using (Tos-Gly-Pro-Arg)2[R110].2TFA as substrate measured at 30 secs interval for 5 mins by fluorescence intensity assay
stated-conditions: read-out: pIC50 (converted)
Give measured IC50 for each item. Keep answers brief.
# number only, unit nM dropped from output

Which IC50 value belongs to `N=C(N)c1ccc(NCc2nc(-c3ccccc3)c[nH]2)cc1OCc1ncco1` ?
100

Name the reported IC50 value associated with the molecule `Cn1ccnc1CNc1ccc(C(=N)N)cc1`
126000

Look up IC50 for this molecule: `N=C(N)c1ccc(NCc2nc(-c3ccccc3)c[nH]2)cc1OCc1cccc(Cl)c1`
79.4

Find the recorded IC50 belonging to `N=C(N)c1ccc(NCc2nc(-c3ccccc3)c[nH]2)cc1OCCC1CC1` and report it.
200

# lookup: IC50 of `N=C(N)c1ccc(NCc2nc(-c3ccccc3)c[nH]2)cc1OCC(=O)NC1CC1`
79.4

GET /values?readout=IC50&item= `N=C(N)c1ccc(NCc2nc(-c3ccccc3)c[nH]2)cc1OCc1ccccn1`
126

Value lookup for IC50; key = `COc1ccc2[nH]c(CNc3ccc(C(=N)N)cc3)nc2c1`
12600

What value of IC50 has been recorded for this entry: `N=C(N)c1ccc(NCc2nc(-c3ccccc3)c[nH]2)cc1OCc1ccccc1Cl`
31.6

Sample `N=C(N)c1ccc(NCc2nc(-c3ccccc3)c[nH]2)cc1OCc1cccnc1` — what was its IC50?
79.4

Param item = `N=C(N)c1ccc(NCc2nc3ccccc3[nH]2)cc1` ; retrieve measured IC50.
20000

# IC50 lookup, item `Cn1c(CNc2ccc(C(=N)N)cc2)nc2ccccc21`
15800

Quick check: IC50 of `Cc1ccc2[nH]c(CNc3ccc(C(=N)N)cc3)nc2c1` ?
10000

What IC50 value was documented for this molecule, `CN(C)CCOc1cc(NCc2nc(-c3ccccc3)c[nH]2)ccc1C(=N)N` ?
15800

Reported IC50 for `N=C(N)c1ccc(NCc2nc(-c3ccccc3)c[nH]2)cc1OCCO` : what is it?
3980

I would be grateful if you could share the reported IC50 for `CNC(=O)COc1cc(NCc2nc(-c3ccccc3)c[nH]2)ccc1C(=N)N` .
251

Item under review: `N=C(N)c1ccc(NCc2nc(-c3ccccc3)c[nH]2)cc1OCc1ccccc1` . Reported IC50?
79.4

Recorded IC50 for `N=C(N)c1ccc(NCc2nc3cc(Cl)ccc3[nH]2)cc1` , please?
10000
